All figures here come from PubChem BioAssay (NCI).

growth reference
test system: MALME-3M melanoma; experiment: NCI-60 one-dose screen, 48 h (100 = growth as untreated, 0 = no growth, -100 = all killed); settings: 10 µM unless noted
The panel holds about 83,000 compounds, 20% with a hit somewhere; the sample as a whole holds those more often. Active and inactive are the calls of the source. How the source made its calls: active means growth percent below 10; inactive means the rest.

[
  {
    "COMPOUND": "CN(C)C(=S)N(C)C",
    "growth": "165% (inactive)"
  }
]

Please give the measured growth for this compound: COc1ccc(CCN=Cc2ccc(Cl)cc2)cc1OC
135% (inactive)

Please give the measured growth for this compound: C/C=C/C(=O)OCCCCCCCCCCCC
111% (inactive)

Please give the measured growth for this compound: N#Cc1c(N)nc2c(c(-c3ccc(Cl)cc3)nn2-c2ccccc2)c1C#N
105% [100 µM] (inactive)

Please give the measured growth for this compound: CCCC(=O)OCC(COC(=O)CCC)OC(=O)CCC
107% (inactive)

----------
tested on: SK-MEL-2 melanoma; experiment: NCI-60 one-dose screen, 48 h (100 = growth as untreated, 0 = no growth, -100 = all killed); settings: 10 µM unless noted
This is part of a sample that, as a whole, favours compounds with a hit. Of some 83,000 tested, about 20% had one in any assay. The source made the active and inactive calls. Rule for the calls: active = growth percent below 10; inactive = the rest.
growth reference

[
  {
    "COMPOUND": "Oc1ccc(O)c(-c2ccccc2)c1",
    "SYSTEM_UNDER_TEST": "SK-MEL-2 melanoma",
    "RESULT": "72.5% (inactive)"
  }
]

Please give the measured growth for this compound: N=C(N)N1CCc2ccccc2C1
128% (inactive)

Please give the measured growth for this compound: ON=C(C1CCCCC1)C1CCCCC1
107% (inactive)

Please give the measured growth for this compound: COC(=O)c1nc(N)nc(C(=O)OC)c1C(=O)c1cccc2ccccc12
106% (inactive)

Please give the measured growth for this compound: N#CC(=S)Nc1ccc(Cl)c(Cl)c1
-26.4% (active)

Please give the measured growth for this compound: COc1ccc2oc3c(ccc[n+]3C)c(=O)c2c1
99.6% (inactive)

----------
system: MDA-MB-231 breast; experiment: NCI-60 one-dose screen, 48 h (100 = growth as untreated, 0 = no growth, -100 = all killed); details: 10 µM unless noted
Compounds without any hit were thinned out: in the full panel of roughly 83,000, 20% have a hit. Active and inactive are the calls of the source. Rule for the calls: active = growth percent below 10; inactive = the rest.
growth reference

[
  {
    "COMPOUND": "CCOC(=O)c1ccc(N2C(=O)C(Cl)(c3ccccc3)C2c2ccco2)cc1 (stereo not drawn)",
    "RESULT": "80% (inactive)"
  }
]

Please give the measured growth for this compound: Cc1cc(=NO)cc(C)n1O
118% (inactive)

Please give the measured growth for this compound: CN(C=O)c1ccccc1
84.6% (inactive)

Please give the measured growth for this compound: CCCC(=O)Oc1ccc2ccccc2c1
95.8% (inactive)

Please give the measured growth for this compound: OCc1cccc(F)c1
89.6% (inactive)

Please give the measured growth for this compound: CC(C)(C)OC(=O)NCCc1ccc(N)cc1
85.6% (inactive)

Please give the measured growth for this compound: O=COCCCc1ccccc1
100% (inactive)

Please give the measured growth for this compound: COC(=O)C(Cc1cn(C(C)=O)c2ccccc12)P(=O)(OC)OC (stereo not drawn)
97.9% (inactive)
